# assayedTarget: HLA-A*26:01
# testName: IEDB peptide-MHC binding, purified MHC/direct/fluorescence; filed as Kd, often an IC50 or EC50 that approximates it; bounds were set here for any values at or beyond the usual limits of such assays
# studyConditions: source organism: Giardia lamblia ATCC 50803
Form field: Kd (one value per entry).

> print(dat)
   biopolymersequence  assayedtarget  measured
1           LTIVFVPEV    HLA-A*26:01   ≥ 20 µM

Now take the following sequence into account.
Under HLA-A*26:01: report Kd of ARADGILRF . ≥ 20 µM

----------
# assayedTarget: HLA-A*02:03
# testName: IEDB peptide-MHC binding, purified MHC/direct/fluorescence; filed as Kd, often an IC50 or EC50 that approximates it; bounds were set here for any values at or beyond the usual limits of such assays
# studyConditions: source organism: Squirrelpox virus
pKd: −log10 of the molar value.
recordedMetric: pKd

Write down pKd measured for item MACHRVLTY ≤ 4.70
